- ASSAY_NAME: Rat brain disposition after oral gavage
- Format: in vivo, male Sprague-Dawley rats
- EXPERIMENTAL_CONDITIONS: male, Sprague-Dawley, brain, oral 10 mg/kg, 0.5 h, mean ± stdev, n=3
MEASURED_QUANTITY: Kp uu at 0.5 h
Form field (numeric): enter value without unit.

# Kp uu at 0.5 h lookup, item "CCOc1ncccc1-n1nc2c(c1C)Nc1ncc3c(Cl)nn(c3n1)CCCO2"
0.35

====

Below, each entry is listed alongside its reported pIC50.
- TARGET_UNDER_TEST: LRRK2 WT (Homo sapiens (Human))
- Sequence (Q5S007 970-2527): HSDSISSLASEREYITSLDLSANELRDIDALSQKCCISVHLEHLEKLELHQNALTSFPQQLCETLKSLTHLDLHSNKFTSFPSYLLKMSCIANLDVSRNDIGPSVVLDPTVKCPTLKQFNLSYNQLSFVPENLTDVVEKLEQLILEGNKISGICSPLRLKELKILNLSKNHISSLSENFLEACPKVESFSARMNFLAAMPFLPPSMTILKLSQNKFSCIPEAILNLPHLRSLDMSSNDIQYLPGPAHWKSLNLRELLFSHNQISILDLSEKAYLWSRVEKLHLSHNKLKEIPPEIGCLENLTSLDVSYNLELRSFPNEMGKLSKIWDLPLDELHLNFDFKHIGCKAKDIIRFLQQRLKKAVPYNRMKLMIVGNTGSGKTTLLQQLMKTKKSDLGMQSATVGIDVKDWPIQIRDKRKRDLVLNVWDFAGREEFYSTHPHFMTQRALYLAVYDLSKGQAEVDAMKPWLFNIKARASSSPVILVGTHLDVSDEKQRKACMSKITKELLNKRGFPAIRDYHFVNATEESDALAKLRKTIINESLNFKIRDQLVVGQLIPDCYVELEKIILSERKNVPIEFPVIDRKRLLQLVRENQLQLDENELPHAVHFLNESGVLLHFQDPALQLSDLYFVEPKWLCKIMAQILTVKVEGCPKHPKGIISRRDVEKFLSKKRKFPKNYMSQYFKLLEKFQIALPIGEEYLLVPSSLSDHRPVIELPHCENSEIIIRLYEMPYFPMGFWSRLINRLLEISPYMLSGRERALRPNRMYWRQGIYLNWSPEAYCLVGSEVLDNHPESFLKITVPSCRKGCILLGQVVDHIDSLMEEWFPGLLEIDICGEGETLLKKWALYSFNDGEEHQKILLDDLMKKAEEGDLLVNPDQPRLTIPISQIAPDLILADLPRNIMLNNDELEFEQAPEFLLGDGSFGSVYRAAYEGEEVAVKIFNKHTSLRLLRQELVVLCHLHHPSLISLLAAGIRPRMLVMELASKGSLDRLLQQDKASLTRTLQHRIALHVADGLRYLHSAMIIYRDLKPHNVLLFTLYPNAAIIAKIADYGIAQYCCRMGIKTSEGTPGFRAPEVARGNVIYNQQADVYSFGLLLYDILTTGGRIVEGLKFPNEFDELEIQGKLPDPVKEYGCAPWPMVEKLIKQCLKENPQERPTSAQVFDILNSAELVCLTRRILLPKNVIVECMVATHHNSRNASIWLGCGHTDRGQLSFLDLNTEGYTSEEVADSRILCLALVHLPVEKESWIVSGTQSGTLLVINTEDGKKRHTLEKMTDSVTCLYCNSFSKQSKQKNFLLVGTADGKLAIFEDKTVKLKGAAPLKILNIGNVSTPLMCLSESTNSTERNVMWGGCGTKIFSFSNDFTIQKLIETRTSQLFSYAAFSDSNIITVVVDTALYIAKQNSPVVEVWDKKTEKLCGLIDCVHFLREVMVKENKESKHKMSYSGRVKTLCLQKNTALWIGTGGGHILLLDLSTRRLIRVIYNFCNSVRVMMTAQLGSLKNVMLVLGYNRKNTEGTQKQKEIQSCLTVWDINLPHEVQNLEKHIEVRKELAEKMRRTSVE
- ASSAY_NAME: LRRK2 wild-type ADP-Glo kinase assay
- Format: biochemical
- EXPERIMENTAL_CONDITIONS: read-out: LRRK2 WT ADPGlo IC50
pIC50 here is simply -log10 of the concentration when that concentration is written in mol/L.

In the examples that follow, each entry is paired with its recorded pIC50.
>>> measured_value("[2H]C([2H])([2H])c1c2c(nn1-c1cccnc1OC)OCCCn1nc(Cl)c3cnc(nc31)N2")
9.20
>>> measured_value("COc1nc(C)ncc1-n1nc2c(c1C)Nc1ncc3c(Cl)nn(c3n1)CCCO2")
9.22

From here, focus on the item given below.
Give recorded pIC50 with LRRK2 WT (Homo sapiens (Human)) for the following compound: "[2H]C([2H])([2H])Oc1ncccc1-n1nc2c(c1C)Nc1ncc3c(Cl)nn(c3n1)CCCO2"
9.31

These entries and their values trace back to patent US11958865B1.
